Recorded phosphorylation enrichment values for a group of sequences are listed next.
# System: AncSZ;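 further: frequency after pTyr selection over input frequency; kinase dosed for 20-30% of maximal phosphorylation in three min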
# Test method notes: phosphorylation enrichment, bacterial display (enrichment ratio); higher = better substrate or ligand; peptides without Tyr show the background

| Input sequence | phosphorylation enrichment |
| --- | --- |
| TSKLSYLDPRI [TOP1_Y723_N722S] | 0.639 |
| EKESCYILHSS [PATJ_Y783_E779K] | 1.28 |
| TSNQEYLFLSM [FGFR1_Y766_D768Y_YF] | 1.21 |
| CPTIHYNFMCN [TP53_Y234_T230P_YF] | 1.09 |
| DEQKKYYNAMK [SCN5A_Y1494_E1489D] | 0.874 |
| HHLSTYTKMLF [CHST8_Y251_R247H] | 1.39 |
| RAHARYCADAC [ACOT4_Y52_R57C] | 0.601 |
| PESCLYKESWL [IQGAP2_Y630] | 2.25 |

INPUT: For AncSZ, give the measured phosphorylation enrichment of the entry RGSQQYRALTV [TUBB8_Y281]
OUTPUT: 0.862

INPUT: State phosphorylation enrichment (AncSZ) of KLKPIYFHTQG [AR_Y916_V912L] .
OUTPUT: 0.602

INPUT: Please tell me the measured phosphorylation enrichment for SENAFYLSPHI [COL6A3_Y2827_D2831H] ; system: AncSZ.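 Further: 11-residue human phosphosite peptides and single-mutation variants displayed on the E. coli surface, counted by deep sequencing, each peptide's frequency after selection divided by its frequency in the unselected input library.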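 Further: frequency after pTyr selection over input frequency; kinase dosed for 20-30% of maximal phosphorylation in three min.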
OUTPUT: 1.26
